Value source: patent US20250101038A1

Exercise: state measured Emax for each of the compounds provided.
target: 5-HT2C receptor (Homo sapiens, UniProt P28335); construct: host or cells: HEK293; test: cell-based; conditions: agonist activity, Ca2+ flux, HEK293 cells
Report as a plain number; the unit % is understood.

Problem: // Emax lookup, key: CN(C)CCc1c[nH]c2cc3c(cc12)OCC3
Result: 82.3

Problem: // Emax lookup, key: CCN(C)CCc1c[nH]c2c(C)cc(OC)cc12
Result: 57.3

Problem: // Emax lookup, key: Cc1ccc(O)c2c(CCN(C)C(C)C)c[nH]c12
Result: 4.33

Problem: // Emax lookup, key: CCN(C)CCc1c[nH]c2ccc3oc(C)nc3c12
Result: 85.7

Problem: // Emax lookup, key: COc1cc(C)c2[nH]cc(CCN(C)C)c2c1
Result: 56.4

Problem: // Emax lookup, key: CCN(C)CCc1c[nH]c2ccc(OC)c(C)c12
Result: 53.1

Problem: // Emax lookup, key: CCN(CCc1c[nH]c2ccc(OC)c(C)c12)C(C)C
Result: 0.71

Problem: // Emax lookup, key: COc1c(C)ccc2[nH]cc(CCN(C(C)C)C(C)C)c12
Result: 49.4

Problem: // Emax lookup, key: CC(C)N(CCc1c[nH]c2ccc(F)c(F)c12)C(C)C
Result: 93.1

Problem: // Emax lookup, key: CCCN(CCC)CCc1c[nH]c2c(C)cc(OC)cc12
Result: 30.7

Problem: // Emax lookup, key: COc1ccc(C)c2[nH]cc(CCN(C(C)C)C(C)C)c12
Result: 66.7

Problem: // Emax lookup, key: CCN(CC)CCc1c[nH]c2c(F)cc(OC)cc12
Result: 81.5

Problem: // Emax lookup, key: CCN(CC)CCc1c[nH]c2ccc(C)c(O)c12
Result: 78.2

Problem: // Emax lookup, key: COc1cc2c(CCN(C)C(C)C)c[nH]c2cc1C
Result: 70.8

Problem: // Emax lookup, key: COc1cc(C)c2[nH]cc(CCN(C(C)C)C(C)C)c2c1
Result: 85.8

Problem: // Emax lookup, key: CCN(C)CCc1c[nH]c2c(F)ccc(OC)c12
Result: 47.5

Problem: // Emax lookup, key: CCN(C)CCc1c[nH]c2cc(F)c(F)cc12
Result: 102

Problem: // Emax lookup, key: CN(C)CCc1c[nH]c2c(F)c(F)ccc12
Result: 99.3

Problem: // Emax lookup, key: COc1ccc(C)c2[nH]cc(CCN(C)C(C)C)c12
Result: 38.8

Problem: // Emax lookup, key: COc1c(F)ccc2[nH]cc(CCN(C)C(C)C)c12
Result: 85.1

----------
test: In vivo pharmacokinetics, plasma and brain exposure after IP dosing; set-up: species or system male C57BL/6 mice; details: male, C57BL/6, mouse, plasma, ip, 10 mg/kg, 0.5 h, individual mouse, read-out: Plasma Concentration, Individual
Measurement type: concentration at 0.5 h (nM)
Report as a plain number; the unit nM is understood.

Problem: // concentration at 0.5 h lookup, key: CCN(C)CCc1c[nH]c2c(C)cc(OC)cc12
Result: 3460

Problem: // concentration at 0.5 h lookup, key: CCN(C)CCc1c[nH]c2cc(C)c(OC)cc12
Result: 1200

Problem: // concentration at 0.5 h lookup, key: CCN(C)CCc1c[nH]c2ccc(OC)c(C)c12
Result: 1280

----------
Exercise: state measured EC50 for each of the molecules provided.
Molecular target: 5-HT2C receptor (Homo sapiens, UniProt P28335)
Construct: host or cells: HEK293
Sequence (P28335 33-458): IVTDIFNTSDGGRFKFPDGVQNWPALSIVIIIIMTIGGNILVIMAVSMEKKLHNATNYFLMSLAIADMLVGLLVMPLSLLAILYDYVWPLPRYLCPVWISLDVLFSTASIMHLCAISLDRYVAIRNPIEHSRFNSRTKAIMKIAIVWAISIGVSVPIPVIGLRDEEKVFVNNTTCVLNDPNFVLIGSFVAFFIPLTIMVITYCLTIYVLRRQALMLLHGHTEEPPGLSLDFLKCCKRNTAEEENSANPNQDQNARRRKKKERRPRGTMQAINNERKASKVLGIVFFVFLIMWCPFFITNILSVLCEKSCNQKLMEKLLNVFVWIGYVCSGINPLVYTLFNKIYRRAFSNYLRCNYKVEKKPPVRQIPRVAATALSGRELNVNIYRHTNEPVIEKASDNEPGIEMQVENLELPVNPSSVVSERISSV
Experiment: cell-based
Details: agonist activity, Ca2+ flux, HEK293 cells; read-out: 5-HT2C EC50
Report as a plain number; the unit µM is understood.

Problem: // EC50 lookup, key: CC(C)N(CCc1c[nH]c2ccc(F)c(F)c12)C(C)C [Example P-146]
Result: 0.0254

Problem: // EC50 lookup, key: CCN(CC)CCc1c[nH]c2c(F)ccc(OC)c12 [Example P-104]
Result: 8.18

Problem: // EC50 lookup, key: CCN(CC)CCc1c[nH]c2ccc(C)c(OC)c12 [Example P-61]
Result: 0.444

Problem: // EC50 lookup, key: CCN(CC)CCc1c[nH]c2ccc(F)c(OC)c12 [Example P-94]
Result: 0.131

Problem: // EC50 lookup, key: COc1cc(F)c2[nH]cc(CCN(C)C(C)C)c2c1 [Example P-116]
Result: 0.72

Problem: // EC50 lookup, key: CCN(C)CCc1c[nH]c2ccc(C)c(OC)c12 [Example P-59]
Result: 0.0438

Problem: // EC50 lookup, key: CCN(C)CCc1c[nH]c2ccc(C)c(O)c12 [Example P-64]
Result: 0.141

Problem: // EC50 lookup, key: CC(C)N(C)CCc1c[nH]c2c(F)c(F)ccc12 [Example P-161]
Result: 0.418

Problem: // EC50 lookup, key: CC(C)N(C)CCc1c[nH]c2ccc3ocnc3c12 [Example P-128]
Result: 0.0678

Problem: // EC50 lookup, key: COc1cc2c(CCN(C)C)c[nH]c2cc1C [Example P-7]
Result: 0.11

Problem: // EC50 lookup, key: CC(C)N(C)CCc1c[nH]c2cc(F)c(F)cc12 [Example P-155]
Result: 0.0507

Problem: // EC50 lookup, key: CCCN(CCC)CCc1c[nH]c2ccc(C)c(O)c12 [Example P-68]
Result: 0.871

Problem: // EC50 lookup, key: CCN(C)CCc1c[nH]c2cc(C)c(OC)cc12 [Example P-42]
Result: 0.0685

Problem: // EC50 lookup, key: CN(C)CCc1c[nH]c2cc3ccoc3cc12 [Example P-2]
Result: 0.0568

Problem: // EC50 lookup, key: COc1cc(F)cc2[nH]cc(CCN(C(C)C)C(C)C)c12 [Example P-100]
Result: 0.864

Problem: // EC50 lookup, key: CCN(CC)CCc1c[nH]c2c(C)ccc(O)c12 [Example P-88]
Result: 1.3

Problem: // EC50 lookup, key: Cc1ccc2[nH]cc(CCN(C)C)c2c1O [Example P-10]
Result: 0.0728

Problem: // EC50 lookup, key: CCN(C)CCc1c[nH]c2ccc(F)c(OC)c12 [Example P-92]
Result: 0.0179

Problem: // EC50 lookup, key: COc1cc(F)c2[nH]cc(CCN(C(C)C)C(C)C)c2c1 [Example P-118]
Result: 0.695

Problem: // EC50 lookup, key: CCCN(C)CCc1c[nH]c2c(C)cc(OC)cc12 [Example P-52]
Result: 0.529

Problem: // EC50 lookup, key: Cc1ccc2[nH]cc(CCN(C(C)C)C(C)C)c2c1O [Example P-69]
Result: 3.21

Problem: // EC50 lookup, key: COc1ccc(C)c2[nH]cc(CCN(C(C)C)C(C)C)c12 [Example P-83]
Result: 1.62

Problem: // EC50 lookup, key: CCN(CCc1c[nH]c2ccc(C)c(OC)c12)C(C)C [Example P-62]
Result: 1.29

Problem: // EC50 lookup, key: Cc1nc2c(ccc3[nH]cc(CCN(C(C)C)C(C)C)c32)o1 [Example P-135]
Result: 2.07

Problem: // EC50 lookup, key: COc1c(F)ccc2[nH]cc(CCN(C)C)c12 [Example P-91]
Result: 0.00124

Problem: // EC50 lookup, key: CCCN(CC)CCc1c[nH]c2cc(C)c(OC)cc12 [Example P-46]
Result: 0.777

Problem: // EC50 lookup, key: COc1cc(C)c2[nH]cc(CCN(C)C)c2c1 [Example P-50]
Result: 0.538

Problem: // EC50 lookup, key: Cc1nc2c(ccc3[nH]cc(CCN(C)C(C)C)c32)o1 [Example P-133]
Result: 0.894

Problem: // EC50 lookup, key: CCCN(CC)CCc1c[nH]c2c(C)cc(OC)cc12 [Example P-55]
Result: 1.81

Problem: // EC50 lookup, key: CCCN(C)CCc1c[nH]c2ccc(C)c(O)c12 [Example P-65]
Result: 0.175

Problem: // EC50 lookup, key: CCN(CC)CCc1c[nH]c2ccc(F)c(F)c12 [Example P-145]
Result: 0.102

Problem: // EC50 lookup, key: CCN(CC)CCc1c[nH]c2cc(C)c(OC)cc12 [Example P-45]
Result: 0.7

Problem: // EC50 lookup, key: COc1cc(F)cc2[nH]cc(CCN(C)C(C)C)c12 [Example P-97]
Result: 0.336

Problem: // EC50 lookup, key: CCN(C)CCc1c[nH]c2cc(F)cc(OC)c12 [Example P-96]
Result: 0.0602

Problem: // EC50 lookup, key: COc1ccc2[nH]cc(CCN(C)C)c2c1C [Example P-6]
Result: 0.303

Problem: // EC50 lookup, key: COc1ccc(F)c2[nH]cc(CCN(C(C)C)C(C)C)c12 [Example P-105]
Result: 1.2

Problem: // EC50 lookup, key: CCN(C)CCc1c[nH]c2c(C)ccc(OC)c12 [Example P-80]
Result: 0.14

Problem: // EC50 lookup, key: CN(C)CCc1c[nH]c2cc(F)c(F)cc12 [Example P-153]
Result: 0.00535

Problem: // EC50 lookup, key: Cc1ccc2[nH]cc(CCN(C)C(C)C)c2c1O [Example P-66]
Result: 0.391

Problem: // EC50 lookup, key: CCN(CCc1c[nH]c2cc(F)cc(OC)c12)C(C)C [Example P-99]
Result: 0.755
